- experimental_system: T1, ZFP SBS#1008 (synthetic)
- T1 chain: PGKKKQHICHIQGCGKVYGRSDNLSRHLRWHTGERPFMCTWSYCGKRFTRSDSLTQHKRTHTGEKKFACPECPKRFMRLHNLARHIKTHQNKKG
- test_details: EMSA
- study_conditions: tags: MBP fusion
measured_quantity: Kd (nM)

• GAGATGGAG (dsDNA) DNA 1: GAGATGGAG DNA 2: CTCCATCTC = 0.4
